Target: T1, human GIP receptor (human) (UniProt P48546)
T1 sequence (looked up): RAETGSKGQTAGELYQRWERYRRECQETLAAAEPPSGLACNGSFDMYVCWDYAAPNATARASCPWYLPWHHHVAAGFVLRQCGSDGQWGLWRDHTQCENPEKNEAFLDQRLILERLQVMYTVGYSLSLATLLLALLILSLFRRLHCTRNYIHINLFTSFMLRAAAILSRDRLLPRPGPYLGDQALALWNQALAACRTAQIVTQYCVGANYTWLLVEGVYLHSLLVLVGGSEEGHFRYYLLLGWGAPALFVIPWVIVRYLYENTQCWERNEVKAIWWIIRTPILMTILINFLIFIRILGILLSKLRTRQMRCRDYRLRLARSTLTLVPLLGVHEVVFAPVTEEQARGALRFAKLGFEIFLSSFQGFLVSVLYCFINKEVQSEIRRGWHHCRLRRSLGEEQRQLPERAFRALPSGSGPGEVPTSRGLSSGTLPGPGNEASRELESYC
Test: cell-based or functional assay
Starred links: 1 amine or outer side, 2 acyl side, 3 side chain; linkers in the order of their positions; H or OH if unused. Non-standard residues stand in square brackets, D forms with d. Groups on a side chain read outwards from the residue. No end group written: not given here. *: point of attachment. C20 diacid = O=C(O)CCCCCCCCCCCCCCCCCCC(=O)*; C18 diacid = O=C(O)CCCCCCCCCCCCCCCCC(=O)*; γGlu = O=C(O)[C@H](CCC(=O)[*:2])N[*:1]; αMe4Pal = C[C@](N)(Cc1ccncc1)C(=O)O; 4Pal = N[C@@H](Cc1ccncc1)C(=O)O; αMeL = CC(C)C[C@](C)(N)C(=O)O; Orn = NCCC[C@H](N)C(=O)O; Dab = NCC[C@H](N)C(=O)O; AEEA = NCCOCCOCC(=O)O; Aib = CC(C)(N)C(=O)O
Binary label based on Relative cAMP EC50 with cut-off 0.09 nM: below gives true (1), not below gives false (0).

Illustrative cases are given below, each with its answer.
- binder: "YXQGTXTSDYXSLLDXKAQXXFIEXLLEGGPSSGEPPPE (synthetic construct; SITE 2: note = 2-Aminoisobutyric Acid; SITE 6: note = alpha-methyl-L-phenylalanine; SITE 11: note = alpha-methyl-L-serine; SITE 16: note = L-ornithine; SITE 17: note = Lysine is chemically modified through conjugation of the epsilon-amino group of the Lysine side chain with (2-[) [Example 390]"
  className: "false (0)"
- binder: "YXQGTXTSDXSILLDKKAQXAFIEXLEEGGPSSGAPPPSGSGE (synthetic construct; SITE 2: note = 2-Aminoisobutyric Acid; SITE 6: note = alpha-methyl-2-fluoro-L-phenylalanine; SITE 10: note = 3-(4-Pyridyl)-L-alanine; SITE 17: note = Lysine is chemically modified through conjugation of the epsilon-amino group of the Lysine side chain with (gamma-Glu)2-CO-(CH2)1) [Example 666 (SEQ ID NO: 672)]"
  className: "true (1)"
- binder: "YXQGTFTSDFSXXLDKKAQXAFIEYLLEGGPSSGAPPPEGS (synthetic construct; SITE 2: note = 2-Aminoisobutyric Acid; SITE 12: note = L-ornithine; SITE 13: note = alpha-methyl-leucine; SITE 17: note = Lysine is chemically modified through conjugation of the epsilon-amino group of the Lysine side chain with (2-[2-(2-Amino-ethoxy)-ethoxy]-acetyl)-(gamma-Glu)) [Example 130]"
  className: "false (0)"
- binder: "YXQGTFTSDXSKXLDKKAQXAFIEYLIAXGESSGEPPPSGE (synthetic construct; SITE 2: note = 2-Aminoisobutyric Acid; SITE 10: note = 3-(4-Pyridyl)-L-alanine; SITE 13: note = alpha-methyl-leucine; SITE 17: note = Lysine is chemically modified through conjugation of the epsilon-amino group of the Lysine side chain with (2-[2-(2-Amino-ethoxy)-ethoxy]-acetyl)) [Example 286]"
  className: "true (1)"
- binder: "YXQGTXTSDXXIXLDXKAQXXFIEXLIEGGPSSGEPPPSEG (synthetic construct; SITE 2: note = 2-Aminoisobutyric Acid; SITE 6: note = alpha-methyl-2-fluoro-L-phenylalanine; SITE 10: note = 3-(4-Pyridyl)-L-alanine; SITE 11: note = alpha-methyl-L-serine; SITE 13: note = alpha-methyl-leucine; SITE 16: note = L-ornithine; SITE 17: note = Lysine is chemically mo) [Example 401]"
  className: "true (1)"
- binder: "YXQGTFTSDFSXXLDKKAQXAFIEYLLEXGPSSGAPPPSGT (synthetic construct; SITE 2: note = 2-Aminoisobutyric Acid; SITE 12: note = L-ornithine; SITE 13: note = alpha-methyl-leucine; SITE 17: note = Lysine is chemically modified through conjugation of the epsilon-amino group of the Lysine side chain with (gamma-Glu)-(2-[2-(2-Amino-ethoxy)-ethoxy]-acetyl)) [Example 276]"
  className: "true (1)"
- binder: "YXQGTXTSDXXIXLDXKAQXXFIEXLAEGGPSSGEPPPSGTE (synthetic construct; SITE 2: note = 2-Aminoisobutyric Acid; SITE 6: note = alpha-methyl-2-fluoro-L-phenylalanine; SITE 10: note = 3-(4-Pyridyl)-L-alanine; SITE 11: note = alpha-methyl-L-serine; SITE 13: note = alpha-methyl-leucine; SITE 16: note = L-ornithine; SITE 17: note = Lysine is chemically mo) [Example 544]"
  className: "true (1)"
- binder: "YXQGTXTSDXSIXLDKKAQXAFIEYLEEGGPSSGEPPPS (synthetic construct; SITE 2: note = 2-Aminoisobutyric Acid; SITE 6: note = alpha-methyl-2-fluoro-L-phenylalanine; SITE 10: note = 3-(4-Pyridyl)-L-alanine; SITE 13: note = alpha-methyl-leucine; SITE 17: note = Lysine is chemically modified through conjugation of the epsilon-amino group of the Lysine) [Example 442]"
  className: "true (1)"
- binder: "YXQGTXTSDXSIXLDKKAQXAFIEYLEEGGPSSGAPPPSGEGE (C-terminal amide; lysine acylated with (γ-Glu)2-C18 diacid; synthetic construct; SITE 2: note = 2-Aminoisobutyric Acid; SITE 6: note = alpha-methyl-2-fluoro-L-phenylalanine; SITE 10: note = 3-(4-Pyridyl)-L-alanine; SITE 13: note = alpha-methyl-leucine; SITE 17: note = Lysine is chemically modified through conjugation of the epsilon-amino group of the Lysine) [Example 623]"
  className: "true (1)"
- binder: "YXQGTXTSDXSIXLDXKAQXEFIEXLLEGGPSSGEPPPSGS (non-natural residues; lipidated Lys; C-terminal amide; synthetic construct; SITE 2: note = 2-Aminoisobutyric Acid; SITE 6: note = alpha-methyl-2-fluoro-L-phenylalanine; SITE 10: note = 3-(4-Pyridyl)-L-alanine; SITE 13: note = alpha-methyl-leucine; SITE 16: note = L-ornithine; SITE 17: note = Lysine is chemically modified through conjugation of the epsil) [Example 645]"
  className: "true (1)"

**Query** # TODO verify Relative cAMP EC50 < 0.09 nM strictly for this binder: YXQGTFTSDXSXXLDXKAQXAFIEXLLEGGPSSGAPPPSGS (synthetic construct; SITE 2: note = 2-Aminoisobutyric Acid; SITE 10: note = 3-(4-Pyridyl)-L-alanine; SITE 12: note = L-ornithine; SITE 13: note = alpha-methyl-leucine; SITE 16: note = L-ornithine; SITE 17: note = Lysine is chemically modified through conjugation of the epsilon-amino group of the Lys) [Example 933]
**Result** false (0)

**Query** # TODO verify Relative cAMP EC50 < 0.09 nM strictly for this binder: YXQGTXTSDXSIXLDKKAQXAFIEYLSEGGPSSGAPPPS (synthetic construct; SITE 2: note = 2-Aminoisobutyric Acid; SITE 6: note = alpha-methyl-2-fluoro-L-phenylalanine; SITE 10: note = 3-(4-Pyridyl)-L-alanine; SITE 13: note = alpha-methyl-leucine; SITE 17: note = Lysine is chemically modified through conjugation of the epsilon-amino group of the Lysine) [Example 446]
**Result** true (1)

**Query** # TODO verify Relative cAMP EC50 < 0.09 nM strictly for this binder: Y[Aib]QGTFTSDYSI[αMeL]LDKQAAK([AEEA-AEEA-γGlu-C20 diacid])QFIEWLIEGGPSSGEPPPGAE-NH2 [Example 319]
**Result** false (0)

**Query** # TODO verify Relative cAMP EC50 < 0.09 nM strictly for this binder: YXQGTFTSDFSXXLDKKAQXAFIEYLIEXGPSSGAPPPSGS (synthetic construct; SITE 2: note = 2-Aminoisobutyric Acid; SITE 12: note = L-ornithine; SITE 13: note = alpha-methyl-leucine; SITE 17: note = Lysine is chemically modified through conjugation of the epsilon-amino group of the Lysine side chain with (2-[2-(2-Amino-ethoxy)-ethoxy]-acetyl)-(gamma-Glu)) [Example 796]
**Result** false (0)

**Query** # TODO verify Relative cAMP EC50 < 0.09 nM strictly for this binder: YXQGTFTSDFSKXLDKKAQXAFIQYLLAGGPSSGEPPPSEG (Aib, αMeL, acylated Lys, C-terminal amide; synthetic construct; SITE 2: note = 2-Aminoisobutyric Acid; SITE 13: note = alpha-methyl-leucine; SITE 17: note = Lysine is chemically modified through conjugation of the epsilon-amino group of the Lysine side chain with (2-[2-(2-Amino-ethoxy)-ethoxy]-acetyl)-(gamma-Glu)-CO-(CH2) 18-CO2H; SITE 20: n) [Example 27]
**Result** false (0)

**Query** # TODO verify Relative cAMP EC50 < 0.09 nM strictly for this binder: YXQGTFTSDXXQXLDXKAQXQFIEXLIEXGPSSGAPPPSGGGE (not fully specified; acylated lysine γGlu-C18 diacid; non-natural residues; C-terminal amide; synthetic construct; SITE 2: note = 2-Aminoisobutyric Acid; SITE 10: note = 3-(4-Pyridyl)-L-alanine; SITE 11: note = alpha-methyl-L-serine; SITE 13: note = alpha-methyl-leucine; SITE 16: note = L-ornithine; SITE 17: note = Lysine is chemically modified through conjugation of the epsilon-amino group) [Example 1187]
**Result** true (1)

**Query** # TODO verify Relative cAMP EC50 < 0.09 nM strictly for this binder: YXQGTFTSDFSKXLDKKAQXAFIEYLLAGGPSSGEPPPSGS (non-natural residues, acylation, C-terminal amide; synthetic construct; SITE 2: note = 2-Aminoisobutyric Acid; SITE 13: note = alpha-methyl-leucine; SITE 17: note = Lysine is chemically modified through conjugation of the epsilon-amino group of the Lysine side chain with (2-[2-(2-Amino-ethoxy)-ethoxy]-acetyl)-(gamma-Glu)-CO-(CH2) 18-CO2H; SITE 20: n) [Example 8]
**Result** false (0)

**Query** # TODO verify Relative cAMP EC50 < 0.09 nM strictly for this binder: YXQGTXTSDYSILLDKKAQXAFIEYLEEGGPSSGAPPPE (synthetic construct; SITE 2: note = 2-Aminoisobutyric Acid; SITE 6: note = alpha-methyl-2-fluoro-L-phenylalanine; SITE 17: note = Lysine is chemically modified through conjugation of the epsilon-amino group of the Lysine side chain with (2-[2-(2-Amino-ethoxy)-ethoxy]-acetyl)-(gamma-Glu)-CO-(CH2) 16-) [Example 408]
**Result** true (1)

**Query** # TODO verify Relative cAMP EC50 < 0.09 nM strictly for this binder: YXQGTXTSDXXIXLDXKAQXXFIEXLIEGGPSSGEPPPEGE (synthetic construct; SITE 2: note = 2-Aminoisobutyric Acid; SITE 6: note = alpha-methyl-2-fluoro-L-phenylalanine; SITE 10: note = 3-(4-Pyridyl)-L-alanine; SITE 11: note = alpha-methyl-L-serine; SITE 13: note = alpha-methyl-leucine; SITE 16: note = L-ornithine; SITE 17: note = Lysine is chemically mo) [Example 698]
**Result** true (1)

**Query** # TODO verify Relative cAMP EC50 < 0.09 nM strictly for this binder: YXQGTFTSDXSQXLDXKAQXAFIEYLLAGGPSSGAPPPSGSEE (non-natural residues; lipidated Lys; C-terminal amide; synthetic construct; SITE 2: note = 2-Aminoisobutyric Acid; SITE 10: note = 3-(4-Pyridyl)-L-alanine; SITE 13: note = alpha-methyl-leucine; SITE 16: note = L-ornithine; SITE 17: note = Lysine is chemically modified through conjugation of the epsilon-amino group of the Lysine side chain with (gamma-Gl)) [Example 1056]
**Result** false (0)

**Query** # TODO verify Relative cAMP EC50 < 0.09 nM strictly for this binder: YXQGTXTSDXSIXLDKKAQXAFIEYLEEGGPSSGEPPPSGTGE (non-natural residues; lipidated Lys; C-terminal amide; synthetic construct; SITE 2: note = 2-Aminoisobutyric Acid; SITE 6: note = alpha-methyl-2-fluoro-L-phenylalanine; SITE 10: note = 3-(4-Pyridyl)-L-alanine; SITE 13: note = alpha-methyl-leucine; SITE 17: note = Lysine is chemically modified through conjugation of the epsilon-amino group of the Lysine) [Example 624]
**Result** true (1)

**Query** # TODO verify Relative cAMP EC50 < 0.09 nM strictly for this binder: Y[Aib]QGTFTSD[4Pal]S[Dab][αMeL]LD[Orn]K([γGlu-γGlu-C18 diacid])AQ[Aib]AFIE[αMe4Pal]LLAGGPSSGAPPPEGSEE-NH2 [Example 1054]
**Result** false (0)
